Target: Glycine receptor (Rattus norvegicus, UniProt P22771+P24524+P07727+P20781); further: in other assays of this panel Not Active means under 50% inhibition at 10 µM
Type: cell membranes, Wistar, Spinal cord, Membrane
measuredParameter: IC50

// field: IC50; key: CC(=O)N[C@@H]1[C@H](Oc2c3cc4cc2Oc2ccc(cc2Cl)[C@@H](O[C@@H]2O[C@@H](CO)[C@@H](O)[C@H](O)[C@@H]2NC(C)=O)[C@@H]2NC(=O)[C@H](NC(=O)[C@@H]4NC(=O)[C@H]4NC(=O)[C@@H](Cc5ccc(c(Cl)c5)O3)NC(=O)[C@H](N)c3ccc(O)c(c3)Oc3cc(O)cc4c3)c3ccc(O)c(c3)-c3c(O[C@H]4O[C@H](CO)[C@@H](O)[C@@H](O)[C@@H]4O)cc(O)cc3[C@@H](C(=O)O)NC2=O)O[C@@H](CO)[C@@H](O)[C@@H]1O ; value = Not Active

For this compound ( CC(C)Cc1ccc(C(C)C(=O)O)cc1 (stereo unspecified) ), measured IC50 is Not Active

Entry C=C1CC[C@H](O)C/C1=C/C=C1\CCC[C@]2(C)[C@@H]([C@H](C)CCCC(C)C)CC[C@@H]12 — recorded IC50 = Not Active

For record Cc1ncc([N+](=O)[O-])n1CCO the listed IC50 is Not Active

Measured IC50, CC(=O)OCC(=O)[C@@]1(O)CC[C@H]2[C@@H]3CCC4=CC(=O)CC[C@]4(C)[C@H]3C(=O)C[C@@]21C [CORTISONE ACETATE] : Not Active

Per the record, CCc1c2c(nc3ccc(OC(=O)N4CCC(N5CCCCC5)CC4)cc13)-c1cc3c(c(=O)n1C2)COC(=O)[C@]3(O)CC has IC50 of Not Active

Noted for CC(C(=O)O)c1cccc(C(=O)c2ccccc2)c1 (stereo unspecified) : its IC50 reads Not Active

So, CC(C)CC(N(C)C)C1(c2ccc(Cl)cc2)CCC1 (stereo unspecified) ? Its IC50 was Not Active

---
// IC50 lookup, compound = CC1=C(C(=O)O)N2C(=O)[C@@H](NC(=O)[C@H](N)c3ccccc3)[C@H]2SC1 [CEPHALEXIN ANHYDROUS] , result: Not Active

So for COP(=O)(OC)OC=C(Cl)Cl , the logged IC50 turned out to be Not Active

The compound Cc1cc2cc3c(C)cc(=O)oc3c(C)c2o1 showed IC50 equal to Not Active

* * *

Molecular target: Polyunsaturated fatty acid lipoxygenase ALOX15 (Oryctolagus cuniculus, UniProt P12530); further: in other assays of this panel Not Active means under 50% inhibition at 10 µM;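 further: inhibition of 15-lipoxygenase enzyme activity measured with linoleic acid as the substrate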
Sequence (P12530 whole entry): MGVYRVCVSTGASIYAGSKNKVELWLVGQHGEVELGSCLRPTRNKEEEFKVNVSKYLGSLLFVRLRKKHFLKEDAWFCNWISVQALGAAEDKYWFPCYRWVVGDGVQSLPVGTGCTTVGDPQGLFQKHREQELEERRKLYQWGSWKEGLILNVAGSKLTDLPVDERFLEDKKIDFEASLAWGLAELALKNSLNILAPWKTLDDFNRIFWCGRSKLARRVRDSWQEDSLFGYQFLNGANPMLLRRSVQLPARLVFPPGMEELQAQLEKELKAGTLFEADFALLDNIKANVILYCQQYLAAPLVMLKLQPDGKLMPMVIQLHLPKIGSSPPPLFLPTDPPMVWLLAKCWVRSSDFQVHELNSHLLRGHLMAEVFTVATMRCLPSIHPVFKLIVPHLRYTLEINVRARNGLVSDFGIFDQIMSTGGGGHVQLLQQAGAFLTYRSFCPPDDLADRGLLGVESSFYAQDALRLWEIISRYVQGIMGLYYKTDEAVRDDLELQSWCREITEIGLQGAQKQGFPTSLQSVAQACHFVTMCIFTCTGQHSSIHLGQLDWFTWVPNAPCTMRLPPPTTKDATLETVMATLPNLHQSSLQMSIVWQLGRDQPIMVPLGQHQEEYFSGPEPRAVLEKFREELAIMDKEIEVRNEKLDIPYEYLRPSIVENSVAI
Test: biochemical
Assay type: tissue-based, Reticulocytes
Conditions: reticulocytes
measuredParameter: IC50

Here are 6 compounds together with their reported answers.
Kindly note the recorded IC50 for CCCN(CCC)C(=O)C(CCC(=O)O)NC(=O)c1ccccc1 (stereo not drawn) [PROGLUMIDE] , which is Not Active

# IC50 (compound: Cn1c(=O)c2c(ncn2CC2OCCO2)n(C)c1=O ) is Not Active

Please fill in: IC50 reported for CN(C)/N=N/c1[nH]cnc1C(N)=O = Not Active

Quick note, IC50 for C[C@H]1O[C@@H](O[C@H]2[C@@H](O)C[C@H](O[C@H]3[C@@H](O)C[C@H](O[C@H]4CC[C@@]5(C)[C@H](CC[C@@H]6[C@@H]5CC[C@]5(C)[C@@H](C7=CC(=O)OC7)CC[C@]65O)C4)O[C@@H]3C)O[C@@H]2C)C[C@H](O)[C@@H]1O landed at Not Active

Documented IC50 of CC(=O)CC(c1ccccc1)c1c(O)c2ccccc2oc1=O (stereo not drawn) : Not Active

Entry C[C@]1(Cn2ccnn2)[C@H](C(=O)O)N2C(=O)C[C@H]2S1(=O)=O — recorded IC50 = Not Active

Others:
// sample CC1(C)O[C@@H]2C[C@H]3[C@@H]4C[C@H](F)C5=CC(=O)CC[C@]5(C)[C@H]4[C@@H](O)C[C@]3(C)[C@]2(C(=O)CO)O1 [FLURANDRENOLIDE] , its IC50 was Not Active

IC50 recorded for this compound, CC1=C(CC(=O)O)c2cc(F)ccc2/C1=C\c1ccc([S+](C)[O-])cc1 (stereo not drawn) , is Not Active

* * *

Experiment: DRUGMATRIX: Interleukin IL-1 radioligand binding (ligand: [125I] interleukin 1beta)
Assay type: cell membranes, Membrane
Conditions: nih3t3; Not Active = under 50% inhibition at 10 µM
measuredParameter: Ki

Data point: [H]/N=C(/N)N[C@H]1[C@H](O)[C@@H](O)[C@H](O[C@@H]2O[C@@H](C)[C@](O)(C=O)[C@H]2O[C@@H]2O[C@@H](CO)[C@H](O)[C@@H](O)[C@@H]2NC)[C@@H](N/C(N)=N\[H])[C@@H]1O ; Ki = Not Active

// Ki value for COc1ccc2[nH]c([S+]([O-])Cc3ncc(C)c(OC)c3C)nc2c1 (centres undefined) : Not Active

Ki recorded for this molecule, CCOC(=O)C(C)(C)Oc1ccc(Cl)cc1 [CLOFIBRATE] , is Not Active

Record CCn1cc(C(=O)O)c(=O)c2cc(F)c(N3CCN(C)CC3)cc21 . Reported Ki: Not Active

* * *

Assay: DRUGMATRIX: Phorbol Ester radioligand binding (ligand: [3H] PDBu)
Format: cell membranes, Mus musculus, ICR, Brain, Membrane
Details: Not Active = under 50% inhibition at 10 µM
measuredParameter: IC50

Item: CC(C)C[C@H](NC(=O)[C@@H](O)[C@H](N)Cc1ccccc1)C(=O)O [UBENIMEX] | IC50: Not Active

The compound CC1(C)O[C@@H]2C[C@H]3[C@@H]4C[C@H](F)C5=CC(=O)CC[C@]5(C)[C@H]4[C@@H](O)C[C@]3(C)[C@]2(C(=O)CO)O1 [FLURANDRENOLIDE] showed IC50 equal to Not Active

Memo: NC(=O)NO [HYDROXYUREA] , reported IC50: Not Active

According to the records, this compound Cc1cc(C)nc(NS(=O)(=O)c2ccc(N)cc2)n1 [SULFAMETHAZINE] displays IC50 of Not Active

So, COC(=O)C1=C(C)NC(C)=C(C(=O)OCC(C)C)C1c1ccccc1[N+](=O)[O-] (stereo unspecified) [NISOLDIPINE] ? Its IC50 was Not Active

Form field IC50, entry Cc1cc(=O)n(-c2ccccc2)n1C [ANTIPYRINE] : Not Active

Now, please, on to the next compound.
Query C[C@]1(Cn2ccnn2)[C@H](C(=O)O)N2C(=O)C[C@H]2S1(=O)=O [TAZOBACTAM] yields IC50 of Not Active

* * *

Test: DRUGMATRIX: beta-Lactamase enzyme inhibition (substrate: Nitrocefin)
Design: species or system Bacillus cereus
Settings: Not Active = under 50% inhibition at 10 µM
measuredParameter: IC50

In the examples that follow, each entry is paired with its recorded IC50.
Field IC50 (entry CC(C)(C)c1ccc(C(O)CCCN2CCC(C(O)(c3ccccc3)c3ccccc3)CC2)cc1 (stereo not drawn) [TERFENADINE] ) reads Not Active

Looking up Cc1ccc(S(=O)(=O)NC(=O)NN2CC3CCCC3C2)cc1 (stereo not drawn) [GLICLAZIDE] , I found its IC50 recorded as Not Active

Sure, the documented IC50 for C[C@]12CC[C@@H]3c4ccc(O)cc4CC[C@H]3[C@@H]1CC[C@@H]2O [ESTRADIOL] is Not Active

IC50 in this record for COc1cccc2c1C(=O)c1c(O)c3c(c(O)c1C2=O)C[C@@](O)(C(=O)CO)C[C@@H]3O[C@H]1C[C@H](N)[C@@H](O)[C@H](C)O1 [EPIRUBICIN] : Not Active

Memo: N=C(N)NC(=O)c1nc(Cl)c(N)nc1N [AMILORIDE] , reported IC50: Not Active

Noted for Cc1cc(=O)n(-c2ccccc2)n1C [ANTIPYRINE] : its IC50 reads Not Active

Query CC(=O)CC(c1ccccc1)c1c(O)c2ccccc2oc1=O (stereo not drawn) [WARFARIN] yields IC50 of Not Active

Briefly, IC50 measured for Cc1cccc(Nc2ccncc2S(=O)(=O)NC(=O)NC(C)C)c1 [TORSEMIDE] : Not Active

***
Entry NC(=O)c1cnccn1 [PYRAZINAMIDE] , IC50 reported as Not Active

The reported value for C#C[C@]1(OC(C)=O)CC[C@H]2[C@@H]3CCC4=CC(=O)CC[C@@H]4[C@H]3CC[C@@]21C [NORETHINDRONE ACETATE] in terms of IC50 is Not Active

Kindly note the recorded IC50 for CCc1c2c(nc3ccc(OC(=O)N4CCC(N5CCCCC5)CC4)cc13)-c1cc3c(c(=O)n1C2)COC(=O)[C@]3(O)CC [IRINOTECAN] , which is Not Active

The value of IC50 measured for the compound Cn1c(=O)c2c(ncn2CC2OCCO2)n(C)c1=O [DOXOFYLLINE] turned out to be Not Active

Reported IC50 of COCCCOc1ccnc(C[S+]([O-])c2nc3ccccc3[nH]2)c1C (stereo not drawn) [RABEPRAZOLE] : Not Active

Summary for this compound, COc1cc2c(c3oc(=O)c4c(c13)CCC4=O)[C@@H]1C=CO[C@@H]1O2 [AFLATOXIN] : IC50 is Not Active

The compound listed as CNC(=C[N+](=O)[O-])NCCSCc1ccc(CN(C)C)o1 [RANITIDINE] shows IC50 equal to Not Active

CC(=O)Nc1c(I)c(NC(C)=O)c(I)c(C(=O)O)c1I [DIATRIZOIC ACID] has a reported IC50 of Not Active

Note to self: IC50 recorded for C[C@@H]1C[C@@H]([C@H](O)CC2CC(=O)NC(=O)C2)C(=O)[C@@H](C)C1 [CYCLOHEXIMIDE] was Not Active

Summary for this compound, ClC(Cl)Cl [CHLOROFORM] : IC50 is Not Active
